Source: patent US11040106B2

- System: U87-MG cells
- MEASUREMENT_PROTOCOL: Cytotoxicity of ICG, MHI-148 and QCy, 72 h in the dark, AlamarBlue
- Format: cell-based, human
PROPERTY_MEASURED: IC50

| MOLECULE_SMILES | MEASURED_TARGET | PROPERTY_MEASURED | OBSERVED_VALUE |
| --- | --- | --- | --- |
| CC1(C)C(=CC=C2C[N+](C)(C)CC(C=CC3=[N+](CCCCCC(=O)O)c4ccccc4C3(C)C)=C2Cl)N(CCCCCC(=O)O)c2ccccc21 | U87-MG cells | IC50 | > 80 µM |

// next item, IC50 requested
Query: IC50; subject: CC1(C)C(/C=C/C2=C(Cl)C(=C/C=C3\N(CCCCCC(=O)O)c4ccccc4C3(C)C)/CCC2)=[N+](CCCCCC(=O)O)c2ccccc21
19.1 µM
